experiment-description: Blood concentration profile in rats
Format: in vivo
test-conditions: female, SD, whole blood, iv; tacrolimus in rat blood, 5 mg/kg once i.v. caudal vein; Examples: tacrolimus cut out from micelles
metric-name: MRT inf (h)
One number for each entry, in h.

Prompt: Note down MRT inf recorded for C=CC[C@@H]1/C=C(\C)C[C@H](C)C[C@H](OC)[C@H]2O[C@@](O)(C(=O)C(=O)N3CCCC[C@H]3C(=O)O[C@H](/C(C)=C/[C@@H]3CC[C@@H](O)[C@H](OC)C3)[C@H](C)[C@@H](O)CC1=O)[C@H](C)C[C@@H]2OC
Completion: 4.12

* * *

experiment-description: Blood concentration profile in rats
Type: in vivo
test-conditions: female, SD, whole blood, iv; tacrolimus in rat blood, 5 mg/kg once i.v. caudal vein; Examples: tacrolimus cut out from micelles
metric-name: Tmax (min)
Numbers only, in min.

Prompt: Note down Tmax recorded for C=CC[C@@H]1/C=C(\C)C[C@H](C)C[C@H](OC)[C@H]2O[C@@](O)(C(=O)C(=O)N3CCCC[C@H]3C(=O)O[C@H](/C(C)=C/[C@@H]3CC[C@@H](O)[C@H](OC)C3)[C@H](C)[C@@H](O)CC1=O)[C@H](C)C[C@@H]2OC
Completion: 4.98
